Target: FPR1 (Homo sapiens)
Sequence (P21462 whole entry, species assumed): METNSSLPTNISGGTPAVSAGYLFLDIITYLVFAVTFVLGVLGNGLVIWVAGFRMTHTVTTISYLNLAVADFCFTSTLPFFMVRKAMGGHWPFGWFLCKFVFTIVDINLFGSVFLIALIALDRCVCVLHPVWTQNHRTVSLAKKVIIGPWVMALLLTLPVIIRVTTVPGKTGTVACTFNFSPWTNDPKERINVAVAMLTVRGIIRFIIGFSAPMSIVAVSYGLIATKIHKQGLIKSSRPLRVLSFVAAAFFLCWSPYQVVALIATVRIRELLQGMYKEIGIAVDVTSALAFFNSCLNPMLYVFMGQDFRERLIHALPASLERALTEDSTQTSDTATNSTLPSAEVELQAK
Assay: Change in calcium activity by peptide, FPR1 activation effect
Conditions: calcium activity (Fura-2), graded per Table 3, read-out: EC50 for [Ca^2+] FPR1
Peptide text beside a SMILES is read from it.
Assay Readout: EC50

Example entries and their recorded answers appear below.
Compound: CCCC(=O)N1CCC[C@H]1C(=O)N[C@@H](CCCCN)C(=O)N[C@@H](Cc1ccc(O)cc1)C(=O)N[C@@H](CCCCN)C(=O)N[C@H](C(=O)N[C@H](CCSC)C(N)=O)C(C)C [Peptide 140] (HELM PEPTIDE1{[CCCC(=O)[*:2]].P.K.Y.K.V.[dM].[am]}$$$$V2.0)
EC50: > 10 µM

Compound: CSCC[C@@H](NC(=O)[C@@H](NC(=O)[C@H](Cc1c[nH]c2ccccc12)NC(=O)[C@H](Cc1ccc(O)cc1)NC(=O)[C@H](CCCNC(=N)N)NC(=O)[C@H](Cc1c[nH]c2ccccc12)NC(=O)[C@@H](N)CCCNC(=N)N)C(C)C)C(N)=O [Peptide 101] (HELM PEPTIDE1{R.W.R.Y.W.V.[dM].[am]}$$$$V2.0)
EC50: 1 to 10 µM

Compound: CCCCCCCC(=O)N1CCC[C@H]1C(=O)N[C@@H](CCCCN)C(=O)N[C@@H](Cc1ccc(O)cc1)C(=O)N[C@@H](CCCCN)C(=O)N[C@H](C(=O)N[C@H](CCSC)C(N)=O)C(C)C [Peptide 141] (HELM PEPTIDE1{[CCCCCCCC(=O)[*:2]].P.K.Y.K.V.[dM].[am]}$$$$V2.0)
EC50: > 10 µM

Compound: CSCC[C@H](NC(=O)[C@@H](N)Cc1c[nH]cn1)C(=O)N[C@@H](CCCNC(=N)N)C(=O)N[C@@H](Cc1ccc(O)cc1)C(=O)N[C@@H](CCCCN)C(=O)N1CCC[C@H]1C(=O)N[C@H](CCSC)C(N)=O [Peptide 58] (HELM PEPTIDE1{H.M.R.Y.K.P.[dM].[am]}$$$$V2.0)
EC50: > 10 µM

Compound: CSCC[C@H](N)C(=O)N[C@@H](CCCCN)C(=O)N[C@@H](Cc1ccc(O)cc1)C(=O)N[C@@H](CCCCN)C(=O)N[C@H](C(=O)N[C@H](CCSC)C(N)=O)C(C)C [Peptide 17] (HELM PEPTIDE1{M.K.Y.K.V.[dM].[am]}$$$$V2.0)
EC50: > 10 µM

Compound: CSCC[C@H](NC(=O)[C@@H]1CCCN1)C(=O)N[C@@H](CCCNC(=N)N)C(=O)N[C@@H](Cc1ccc(O)cc1)C(=O)N[C@@H](CCCCN)C(=O)N1CCC[C@H]1C(=O)N[C@H](CCSC)C(N)=O [Peptide 62] (HELM PEPTIDE1{P.M.R.Y.K.P.[dM].[am]}$$$$V2.0)
EC50: > 10 µM

Compound: CSCC[C@@H](NC(=O)[C@@H](NC(=O)[C@H](CCCCN)NC(=O)[C@H](Cc1ccc(O)cc1)NC(=O)[C@H](CCCNC(=N)N)NC(=O)[C@@H](N)Cc1c[nH]c2ccccc12)C(C)C)C(N)=O [Peptide 3] (HELM PEPTIDE1{W.R.Y.K.V.[dM].[am]}$$$$V2.0)
EC50: > 10 µM

Compound: CC[C@H](C)[C@H](N)C(=O)N[C@@H](CCCCN)C(=O)N[C@@H](Cc1ccc(O)cc1)C(=O)N[C@@H](CCCCN)C(=O)N[C@H](C(=O)N[C@H](CCSC)C(N)=O)C(C)C [Peptide 134] (HELM PEPTIDE1{I.K.Y.K.V.[dM].[am]}$$$$V2.0)
EC50: > 10 µM

INPUT: Form entry - test system: FPR1 (Homo sapiens); read-out: EC50; compound: CCCC(=O)N[C@@H](CCSC)C(=O)N[C@@H](CCCCN)C(=O)N[C@@H](Cc1ccc(O)cc1)C(=O)N[C@@H](Cc1c[nH]c2ccccc12)C(=O)N1CCC[C@H]1C(=O)N[C@H](CCSC)C(N)=O [Peptide 115] (HELM PEPTIDE1{[CCCC(=O)[*:2]].M.K.Y.W.P.[dM].[am]}$$$$V2.0)
OUTPUT: 1 to 10 µM

INPUT: What do we get for CSCC[C@H](NC(C)=O)C(=O)N[C@@H](CCCCN)C(=O)N[C@@H](Cc1ccc(O)cc1)C(=O)N[C@@H](CCCCN)C(=O)N1CCC[C@H]1C(=O)N[C@H](CCSC)C(N)=O [Peptide 71] (HELM PEPTIDE1{[ac].M.K.Y.K.P.[dM].[am]}$$$$V2.0) ?
OUTPUT: > 10 µM

INPUT: What do we get for CCCC(=O)N[C@@H](CCCNC(=N)N)C(=O)N[C@@H](CCSC)C(=O)N[C@@H](CCCNC(=N)N)C(=O)N[C@@H](Cc1ccc(O)cc1)C(=O)N[C@@H](Cc1c[nH]c2ccccc12)C(=O)N[C@@H](Cc1ccc(O)cc1)C(=O)N[C@H](CCSC)C(N)=O [Peptide 83] (HELM PEPTIDE1{[CCCC(=O)[*:2]].R.M.R.Y.W.Y.[dM].[am]}$$$$V2.0) ?
OUTPUT: > 10 µM

INPUT: What do we get for CC[C@H](C)[C@H](N)C(=O)N[C@@H](CCCCN)C(=O)N[C@@H](Cc1ccccc1)C(=O)N[C@@H](CCCCN)C(=O)N[C@H](C(=O)N[C@H](CCSC)C(N)=O)C(C)C [Peptide 132] (HELM PEPTIDE1{I.K.F.K.V.[dM].[am]}$$$$V2.0) ?
OUTPUT: > 10 µM
